- Test system: PDE IV
- test.protocol: Inhibition of PDE IV isolated from canine tracheal muscle (cAMP metabolism)
- Assay type: biochemical
- condition.label: canine trachealis PDE IV, 1 μM 3H-cAMP, 10 μM CI-930, 30° C., pH 7.8; reduction expressed relative to 10 μM rolipram
Where a name gives a salt, the structure may show the parent alone.
value.type: pIC50
The value called pIC50 is obtained by taking minus log10 of the concentration in mol/L.

COc1ccc(C2CC(=O)N(C(=O)NCCCn3ccnc3)N2C)cc1OC1CCCC1 (centres unmarked) [Example 42] ... 6.68
COC(=O)CN1NC(=O)CC1c1ccc(OC)c(OC2CCCC2)c1 (centres unmarked) [Example 4] ... 6.36
COc1ccc(C2CC(=O)N(CCCc3cccnc3)N2C)cc1OC1CCCC1 (centres unmarked) [Example 29] ... 6.80
COc1ccc(C2CC(=O)N(C(=O)NCCN3CCOCC3)N2C)cc1OC1CCCC1 (centres unmarked) [Example 41] ... 5.62
COc1ccc(C2CC(=O)N(C(=O)N[C@@H](C)c3cccc4ccccc34)N2C)cc1OC1CCCC1 (single isomer, unassigned) [13 B] ... 7.74
COc1ccc(C2CC(=O)N(C(C)=O)N2C)cc1OC1CCCC1 (centres unmarked) [Example 31, hydrochloride] ... 6.01
COc1ccc(-c2cc(=O)n(C(=O)NCc3ccccn3)n2C)cc1OC1CCCC1 [Example 12] ... 6.38
COc1ccc(C2CC(=O)N(C(=S)NCc3ccc(F)cc3)N2C)cc1OC1CCCC1 (centres unmarked) [Example 20] ... 7.19
COc1ccc(C2CC(=O)N(C(=O)/C=C/c3cncc(Br)c3)N2C)cc1OC1CCCC1 (centres unmarked) [Example 33] ... 7.09
COc1ccc(C2CC(=O)N(C)N2C)cc1OC1CCCC1 (centres unmarked) [Example 3] ... 6.09

Would you kindly look at the next entry?
QUERY: Record COc1ccc(C2CC(=O)N(C(=O)N[C@@H](C)c3cccc4ccccc34)N2C)cc1OC1CCCC1 (single isomer, unassigned) [13 A] : what is its pIC50 with PDE IV?
RESULT: 7.92

====

- Test system: PDE IV
- test.protocol: Inhibition of PDE IV isolated from canine tracheal muscle (cAMP metabolism)
- Type: biochemical
- condition.label: canine trachealis PDE IV, 1 μM 3H-cAMP, 10 μM CI-930, 30° C., pH 7.8; reduction expressed relative to 10 μM rolipram
Counter-ions that a name gives are not always drawn.
value.type: IC50

For orientation, consider the following solved cases.
COc1ccc(C2CC(=O)N(C(=O)NCc3ccccc3)N2C)cc1OC1CCCC1 (stereo not drawn) [Example 17, hydrochloride] ... 36 nM
CCCCCCCN1C(=O)CC(c2ccc(OC)c(OC3CCCC3)c2)N1C (stereo not drawn) [Example 26, hydrochloride] ... 170 nM
CCCCNC(=O)N1C(=O)CC(c2ccc(OC)c(OC3CCCC3)c2)N1C (stereo not drawn) [Example 14, hydrochloride] ... 260 nM
COc1ccc(C2CC(=O)N(C(N)=O)N2Cc2ccccc2)cc1OC1CCCC1 (stereo not drawn) [Example 23] ... 320 nM
CCN1NC(=O)CC1c1ccc(OC)c(OC2CCCC2)c1 (stereo not drawn) [Example 35] ... 4100 nM

QUERY: # query: IC50 | item CCNC(=O)N1C(=O)CC(c2ccc(OC)c(OC3CCCC3)c2)N1C (stereo not drawn) [Example 15, hydrochloride, hydrate] | system: PDE IV
RESULT: 49 nM

QUERY: Form field - read-out: IC50; system: PDE IV; submitted item: COc1ccc(C2CC(=O)NN2C)cc1OC1CCCC1 (stereo not drawn) [Example 2]
RESULT: 680 nM

QUERY: Value wanted: IC50 (PDE IV) of entry COc1ccc(-c2cc(=O)[nH]n2C)cc1OC1CCCC1 [Example 10]
RESULT: 310 nM

QUERY: I'm curious: which IC50 was measured for CCN(CC)CCNC(=O)N1C(=O)CC(c2ccc(OC)c(OC3CCCC3)c2)N1C (stereo not drawn) [Example 36] tested on PDE IV?
RESULT: 5600 nM

QUERY: Give recorded IC50 with PDE IV for the following compound: COc1ccc(C2CC(=O)N(C(=O)NCCCN3CCCC3=O)N2C)cc1OC1CCCC1 (stereo not drawn) [Example 38]
RESULT: 560 nM

QUERY: Query for PDE IV: what IC50 does the record show for COc1ccc(C2CC(=O)N(C(=O)Nc3ccc(F)cc3)N2C)cc1OC1CCCC1 (stereo not drawn) [Example 22] ?
RESULT: 210 nM

QUERY: What IC50 appears in the records for this compound with PDE IV? COc1ccc(C2CC(=O)N(C(=O)c3cccnc3)N2C)cc1OC1CCCC1 (stereo not drawn) [Example 32, hemihydrate]
RESULT: 340 nM
